test system: XIP peptide (Xip251-270) binding; assay: small-molecule binders of XIP peptide, primary screen, biochemical, small-molecule microarray, fluorescence 635/667 nm, 0.1 µg/mL protein (AID 1182); details: fluorescent protein binding, 635 nm, higher = more signal, called active from +8 up or from −8 down
Classification field: 1 (yes) = composite z-score at or over 0.7; 0 (no) = composite z-score under 0.7.

- CO[C@@H]1COC(=O)CC=C[C@@H](C)COC(=O)[C@H](COCc2ccccc2)NC(=O)CC=C[C@H]1C: 0 (no)
- CCN1C(=O)[C@H]2[C@H]3[C@H](O)[C@H](O)CC(=NOC(C)CN4CCCCc5nc(C)c(C)cc54)[C@@H]3CC[C@H]2C1=O (some centres not stated): 1 (yes)
- CN(C)c1ccc(C(O)C2C=CC3C(=O)N(c4ccccc4)C(=O)C3N2Nc2ccccc2F)cc1 (configuration not stated): 0 (no)
- COc1ccc(-c2ccc3c(n2)CCCN3CC(O)CN2CCCc3nc(C)c(C)cc32)cc1 (configuration not stated): 1 (yes)
- CC(C)(C)N1C(=O)[C@H]2[C@H]3[C@H](O)[C@H](O)CC(=NO[C@@H]4O[C@H](CO)[C@@H](O)[C@H](O)[C@H]4O)[C@@H]3CC[C@H]2C1=O: 1 (yes)
- COc1ccc([Si](C)(C)[C@@H]2[C@@H](CCO)O[C@]3(C(=O)N(Cc4ccc(NC(C)=O)cc4)c4ccccc43)[C@H]2C)cc1: 1 (yes)
- C=COC[C@H]1CN2[C@@H](CC[C@@H](C)[C@@H]2c2ccc(Br)cc2)C(=O)O1: 0 (no)
